- protocolNotes: Volume of distribution at steady state in mouse at 1 mg/kg, iv or po
- Assay type: ADME, organism-based
- measurementConditions: in vivo, read-out: Vdss
Parameter Vd: see the listing below.
attributeMeasured: Vd

smilesCode	attributeMeasured	val
CC(C)(O)[C@H](F)CN1Cc2cc(NC(=O)c3cnn4cccnc34)c(N3CCN(CC(F)F)CC3)cc2C1=O	Vd	0.96 L/kg
CC(C)(O)[C@H](F)CN1Cc2cc(NC(=O)c3cnn4cccnc34)c(N3CCN(C4CC(F)(F)C4)CC3)cc2C1=O	Vd	1.8 L/kg
CC(C)(O)[C@H](F)CN1Cc2cc(NC(=O)c3cnn4cccnc34)c(N3CCOCC3)cc2C1=O	Vd	2.2 L/kg
